- Test method notes: chemical genetic growth profiling, strain panel (AID 1159580);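 note: tested at 20 µM; growth read once vehicle control cultures reached saturation at 30 °C; 1 = growth at the plate median or of vehicle wells; lower values mean less growth of the strain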
- Settings: S. cerevisiae deletion strains, growth OD, locus YPR111W, strain DBF20, active compounds read low
About 2,000 (36%) of roughly 5,500 compounds were called active. Another 18% or so got no clear call; they are omitted. The list shows a part of the results.
Please provide measured normalized growth for the entries that follow.
One number for each entry.

Example molecules with recorded normalized growth:
> print(dat)
                                   molecule  observed.value
1  CS/C(Nc1cccc(C(F)(F)F)c1)=C(/C#N)S(=O)(=O)c1ccc(Cl)cc1           0.949
2  O=C(c1cc2c(s1)-c1ccccc1CC2)N1CCN(Cc2ccccc2)CC1           0.977
3         FC(F)(F)c1cc(-c2ccc(Cl)cc2)n[nH]1           0.892
4  Cc1ccc(OCc2n[nH]c(=S)n2Cc2ccccc2)c2c1CCC2            0.99
5  Cc1ccc2nc(-c3ccc([N+](=O)[O-])o3)oc(=O)c2c1            0.32
6  COc1ccc(C2CC(c3ccc(C)cc3C)=NN2C(C)=O)cc1 (stereo unspecified)           0.977

Hi! Can you tell me normalized growth for each of these molecules?
1. S=C(N/N=C\c1cccs1)NC1CC2CCC1C2 (stereo unspecified)
2. CC(C)(C)c1ccc(C(=O)NNC(=S)Nc2ccc(Cl)cc2)cc1
3. O=C(NNC(=S)Nc1ccc(Cl)cc1)c1ncc(C(F)(F)F)cc1Cl
4. O=C(Nc1cc2c(s1)-c1cc(Cl)ccc1SC2)Oc1ccccc1
5. N#C/C(=N/Nc1cccc(C(F)(F)F)c1)C(=O)c1csc(-c2cccnc2)n1

0.953
0.927
0.987
1.01
0.958
